Assay: Cytotoxic activity in African green monkey Vero cells by sulforhodamine B assay
Type: cell-based
Conditions: chlorocebus sabaeus
property.measured: CC50 (nM)
Give a bare numeral; the unit nM is implied.

Item CC(=O)O[C@@]12CO[C@@H]1C[C@H](O)[C@@]1(C)C(=O)[C@H](O)C3=C(C)[C@@H](OC(=O)[C@H](O)[C@@H](NC(=O)OC(C)(C)C)c4ccccc4)C[C@@](O)([C@@H](OC(=O)c4ccccc4)[C@H]21)C3(C)C [DOCETAXEL ANHYDROUS] has what recorded CC50?
1300

* * *

Experiment: Selectivity index, ratio of antiproliferative IC50 for African green monkey Vero cells to antiproliferative IC50 for human SiHa cells
Type: toxicity
Details: Vero cells versus SiHa cells, read-out: Ratio IC50
Recorded measurements of selectivity ratio, one per entry
Lab note: write the figure by itself, no unit.

Sample answers from the record:
C=C(C)[C@@H]1CC[C@]2(C(=O)O)CC[C@]3(C)[C@H](CC[C@@H]4[C@@]5(C)CC[C@@H](O)[C@](C)(CO)[C@@H]5CC[C@]43C)[C@@H]12 = 1.6
C=C(C)[C@@H]1CC[C@]2(C(=O)O)CC[C@]3(C)[C@H](CC[C@@H]4[C@@]5(C)CC[C@H](O)C(C)(C)[C@@H]5CC[C@]43C)[C@@H]12 = 1
CC(=O)O[C@@]12CO[C@@H]1C[C@H](O)[C@@]1(C)C(=O)[C@H](O)C3=C(C)[C@@H](OC(=O)[C@H](O)[C@@H](NC(=O)OC(C)(C)C)c4ccccc4)C[C@@](O)([C@@H](OC(=O)c4ccccc4)[C@H]21)C3(C)C [DOCETAXEL ANHYDROUS] = 1.4
C=C(C)[C@@H]1CC[C@]2(C(=O)O)CC[C@]3(C)[C@H](CC[C@@H]4[C@@]5(C)CC[C@H]6OC(C)(C)OC[C@]6(C)[C@@H]5CC[C@]43C)[C@@H]12 = 11.3

Item C=C(C)[C@@H]1CC[C@]2(C(=O)O)CC[C@]3(C)[C@H](CC[C@@H]4[C@@]5(C)CC[C@@H](O)C(C)(C)[C@@H]5CC[C@]43C)[C@@H]12 [EPIBETULINIC ACID] has what recorded selectivity ratio?
1

* * *

Assay: Selectivity index, ratio of cytotoxic CC50 for African green monkey Vero cells to cytotoxic CC50 for human HeLa cells
Assay type: toxicity
Conditions: Vero cells versus HeLa cells, read-out: Selectivity Index
Recorded measurements of selectivity ratio, one per entry
Lab note: write the figure by itself, no unit.

C=C(C)[C@@H]1CC[C@]2(C(=O)O)CC[C@]3(C)[C@H](CC[C@@H]4[C@@]5(C)CC[C@@H](O)C(C)(C)[C@@H]5CC[C@]43C)[C@@H]12 [EPIBETULINIC ACID] = 0.9
C=C(C)[C@@H]1CC[C@]2(C(=O)O)CC[C@]3(C)[C@H](CC[C@@H]4[C@@]5(C)CC[C@H](O)C(C)(C)[C@@H]5CC[C@]43C)[C@@H]12 = 1.6

Item CC(=O)O[C@@]12CO[C@@H]1C[C@H](O)[C@@]1(C)C(=O)[C@H](O)C3=C(C)[C@@H](OC(=O)[C@H](O)[C@@H](NC(=O)OC(C)(C)C)c4ccccc4)C[C@@](O)([C@@H](OC(=O)c4ccccc4)[C@H]21)C3(C)C [DOCETAXEL ANHYDROUS] has what recorded selectivity ratio?
14.4
